test: protein stability index of a GFP-peptide fusion (GPS, HEK-293T) (PSI 1-6); higher = more stable; details: treatment: MLN4924 1 uM, 8 h; c terminus: a fixed tail appended;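 also: 24-mer peptide tiles fused after GFP, lentivirally expressed, FACS-sorted into six equal bins by GFP/DsRed ratio, decoded by Illumina sequencing, PSI is the read-weighted mean bin number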
So I've got a bunch of sequences here, and I need their protein stability index values.

Here is how some sequences turned out for protein stability index.
                         sequence_text           endpoint_label  observed_measurement
0    QRTHTGEKPYGCIDCGKAFSQKSC [ZNF649]  protein stability index                  3.87
1  ENTIAGANHTHTFYGHSHHSHHGH [C10orf62]  protein stability index                  3.78
2  LGCFSDTEPWGGTAIRPLKILPWS [PNLIPRP1]  protein stability index                  2.43
3    ESTELMTHLEAQNRIKGCHDHLTL [PDLIM4]  protein stability index                  3.88
4       ETETLVTREAVTEILGIEPDREKG [TSN]  protein stability index                  5.39
5      SNGVEMAAKFPSGSQRARVVNTDH [SDE2]  protein stability index                  4.58
6    CAIQMFSFLFLGCSHSFLLAVMGY [OR10K2]  protein stability index                  3.46
7     ALKYWKKAMNMRYSDRTNIISKPV [FEM1C]  protein stability index                  2.28

Give protein stability index for each listed item.
1. SCTTRLCQEEQLRSHENKLRQLTA [PSD2]
2. KSPTGLKLKNDTENHQPVSLSDLE [ZNF75A]
3. PMNRRNILVMKHNYSQDAADACDI [NETO1]
4. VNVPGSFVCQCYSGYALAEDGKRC [MATN2]
5. DAAGHGFCYCAGSHKRKRSSGSFC [GMCL1]

Response:
3.79
5.19
3.8
3.05
3.35
